Each recorded value in this set is attributed to ChEMBL document CHEMBL4325855.

target: Mitogen-activated protein kinase 10 (Homo sapiens); assay: Binding affinity to human partial length JNK3 (V28 to Q422 residues) expressed in HEK293 cells at <40 uM after 1 hr by Kinomescan method; assay type: cell-based
Sequence (P53779 whole entry, the tested form may be a part): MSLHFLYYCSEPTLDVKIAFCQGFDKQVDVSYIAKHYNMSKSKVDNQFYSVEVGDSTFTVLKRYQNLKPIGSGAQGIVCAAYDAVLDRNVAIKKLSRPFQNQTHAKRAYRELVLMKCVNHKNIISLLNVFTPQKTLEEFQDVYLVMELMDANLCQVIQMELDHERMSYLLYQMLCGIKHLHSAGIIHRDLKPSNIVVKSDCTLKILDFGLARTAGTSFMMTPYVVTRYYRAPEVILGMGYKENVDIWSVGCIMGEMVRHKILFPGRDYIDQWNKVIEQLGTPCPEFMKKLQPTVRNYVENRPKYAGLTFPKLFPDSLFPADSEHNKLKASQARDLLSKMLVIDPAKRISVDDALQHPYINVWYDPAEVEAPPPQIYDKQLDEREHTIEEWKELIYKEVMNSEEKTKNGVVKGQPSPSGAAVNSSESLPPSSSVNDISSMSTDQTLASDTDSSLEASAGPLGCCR
Calls of active or inactive are those of the source. The calls are words filed in the database; no cut-off is given here.
assay_readout: Activity

These recorded examples may help you get a feel for the data.
{"structure_smiles": "O=C1c2ccccc2-n2c1nc1ccccc1c2=O", "target_of_assay": "Mitogen-activated protein kinase 10 (Homo sapiens)", "Activity": "inactive"}
{"structure_smiles": "CO/N=C1\\c2ccccc2-c2nc3ccccc3nc21", "target_of_assay": "Mitogen-activated protein kinase 10 (Homo sapiens)", "Activity": "inactive"}
{"structure_smiles": "CCO/N=C1\\c2ccccc2-c2nc3ccccc3nc21", "target_of_assay": "Mitogen-activated protein kinase 10 (Homo sapiens)", "Activity": "inactive"}
{"structure_smiles": "C=CCO/N=C1\\c2ccccc2-c2nc3ccccc3nc21", "target_of_assay": "Mitogen-activated protein kinase 10 (Homo sapiens)", "Activity": "inactive"}
{"structure_smiles": "[Na+].[O-]/N=C1/c2ccccc2-c2nc3c(Cl)cc(Cl)cc3nc21", "target_of_assay": "Mitogen-activated protein kinase 10 (Homo sapiens)", "Activity": "inactive"}
{"structure_smiles": "CC(C)CO/N=C1\\c2ccccc2-c2nc3ccccc3nc21", "target_of_assay": "Mitogen-activated protein kinase 10 (Homo sapiens)", "Activity": "inactive"}

Request: Tell me the measured Activity of c1ccc(CO/N=C2\c3ccccc3-c3nc4ccccc4nc32)cc1 , please.
Response: inactive

Request: Look up Activity for this molecule: [Na+].[O-]/N=C1/c2ccccc2-c2nc3ccc(C(F)(F)F)cc3nc21
Response: inactive

====

molecular target: Mitogen-activated protein kinase 8 (Homo sapiens, UniProt P45983); assay: Binding affinity to human full-length JNK1 (M1 to Q384 residues) expressed in HEK293 cells at <40 uM after 1 hr by Kinomescan method; assay type: cell-based
Sequence (P45983 whole entry, the tested form may be a part): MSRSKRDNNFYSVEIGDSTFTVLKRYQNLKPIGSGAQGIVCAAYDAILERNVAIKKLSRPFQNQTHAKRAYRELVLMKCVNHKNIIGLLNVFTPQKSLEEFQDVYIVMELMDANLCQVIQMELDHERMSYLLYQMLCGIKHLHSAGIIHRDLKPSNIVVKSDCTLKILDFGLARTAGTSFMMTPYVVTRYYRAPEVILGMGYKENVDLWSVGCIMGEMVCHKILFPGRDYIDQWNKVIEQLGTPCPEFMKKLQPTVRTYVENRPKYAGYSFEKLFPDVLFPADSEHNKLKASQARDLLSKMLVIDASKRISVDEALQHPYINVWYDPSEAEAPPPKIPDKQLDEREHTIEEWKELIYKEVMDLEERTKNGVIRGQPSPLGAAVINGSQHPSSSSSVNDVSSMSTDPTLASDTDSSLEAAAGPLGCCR
The source made the active and inactive calls. No cut-off for these calls is given here.
assay_readout: Activity

Below are worked cases with known answers.
{"structure_smiles": "CO/N=C1\\c2ccccc2-c2nc3ccccc3nc21", "target_of_assay": "Mitogen-activated protein kinase 8 (Homo sapiens, UniProt P45983)", "Activity": "inactive"}
{"structure_smiles": "[Na+].[O-]/N=C1/c2ccccc2-c2nc3ccc(C(F)(F)F)cc3nc21", "target_of_assay": "Mitogen-activated protein kinase 8 (Homo sapiens, UniProt P45983)", "Activity": "inactive"}
{"structure_smiles": "[Na+].[O-]/N=C1/c2ccccc2-c2nc3c(Cl)cc(Cl)cc3nc21", "target_of_assay": "Mitogen-activated protein kinase 8 (Homo sapiens, UniProt P45983)", "Activity": "inactive"}
{"structure_smiles": "c1ccc(CO/N=C2\\c3ccccc3-c3nc4ccccc4nc32)cc1", "target_of_assay": "Mitogen-activated protein kinase 8 (Homo sapiens, UniProt P45983)", "Activity": "inactive"}
{"structure_smiles": "C=CCO/N=C1\\c2ccccc2-c2nc3ccccc3nc21", "target_of_assay": "Mitogen-activated protein kinase 8 (Homo sapiens, UniProt P45983)", "Activity": "inactive"}
{"structure_smiles": "CCO/N=C1\\c2ccccc2-c2nc3ccccc3nc21", "target_of_assay": "Mitogen-activated protein kinase 8 (Homo sapiens, UniProt P45983)", "Activity": "inactive"}

Kindly consider the entry below.
Request: Please give the measured Activity for this molecule: CC(C)CO/N=C1\c2ccccc2-c2nc3ccccc3nc21
Response: inactive

====

target: Mitogen-activated protein kinase 8 (Homo sapiens, UniProt P45983); test: Binding affinity to human full-length JNK1 (M1 to Q384 residues) expressed in HEK293 cells measured after 1 hr by Kinomescan method
assay_readout: Kd (nM)
Respond with the bare value in nM.

Observe how each entry below is paired with its result.
{"compound": "O=C(O)c1ccc2nc3c(nc2c1)/C(=N\\O)c1ccccc1-3", "Kd (nM)": 2100}
{"compound": "Cc1cc2nc3c(nc2cc1C)-c1ccccc1/C3=N/O", "Kd (nM)": 2700}

# next compound below
Request: // lookup Kd | system=Mitogen-activated protein kinase 8 (Homo sapiens, UniProt P45983) | key= O=C1c2ccccc2-n2c1nc1ccccc1c2=O [TRYPTANTHRIN]
Response: 23000

====

molecular target: c-Jun N-terminal kinase, JNK (Homo sapiens, UniProt P45983+P53779+P45984); experiment: Inhibition of JNK in human MONO-MAC-6 cells assessed as reduction in LPS-induced IL6 production preincubated for 30 mins followed by LPS-stimulation and measured after 24 hrs by ELISA; format: cell-based
assay_readout: IC50
A complete answer gives the number followed by the unit.

Would you please look over these solved cases?
{"structure_smiles": "CCOc1ccc2nc3c(nc2c1)-c1ccccc1/C3=N/O", "assay_readout": "IC50", "readout_value": "6.7 µM"}
{"structure_smiles": "OCCO/N=C1\\c2ccccc2-c2nc3ccccc3nc21", "assay_readout": "IC50", "readout_value": "5.9 µM"}
{"structure_smiles": "O/N=C1/c2ccccc2-c2nc3ncccc3nc21", "assay_readout": "IC50", "readout_value": "3.5 µM"}

Request: Quick one: IC50 of Cc1cc2nc3c(nc2cc1C)-c1ccccc1/C3=N/O ?
Response: 0.6 µM

Request: Find the recorded IC50 belonging to O=[N+]([O-])c1ccc2nc3c(nc2c1)/C(=N\O)c1ccccc1-3 and report it.
Response: 3 µM

Request: What value of IC50 has been recorded for this entry: Cc1cccc2nc3c(nc12)-c1ccccc1/C3=N/O
Response: 0.5 µM

====

target: Mitogen-activated protein kinase 10 (Homo sapiens); test: Binding affinity to human partial length JNK3 (V28 to Q422 residues) expressed in HEK293 cells measured after 1 hr by Kinomescan method
assay_readout: log10 of Kd (log10 of the value in nM)
Friendly reminder: values = log10 of Kd, unit nM.

Worked set:
{"structure_smiles": "O/N=C1/c2ccccc2-c2nc3ncc(Cl)cc3nc21", "readout_value": 3.46}
{"structure_smiles": "O/N=C1/c2ccccc2-c2nc3cc(Cl)ccc3nc21", "readout_value": 2.85}
{"structure_smiles": "O/N=C1/c2ccccc2-c2nc3ccncc3nc21", "readout_value": 2.45}
{"structure_smiles": "OCCO/N=C1\\c2ccccc2-c2nc3ccccc3nc21", "readout_value": 2.49}
{"structure_smiles": "CCOc1ccc2nc3c(nc2c1)-c1ccccc1/C3=N/O", "readout_value": 2.96}
{"structure_smiles": "Cc1cccc2nc3c(nc12)-c1ccccc1/C3=N/O", "readout_value": 3.78}
{"structure_smiles": "O=C(O)CO/N=C1\\c2ccccc2-c2nc3ccccc3nc21", "readout_value": 4.45}
{"structure_smiles": "CCOC(=O)CO/N=C1\\c2ccccc2-c2nc3ccccc3nc21", "readout_value": 1.88}

Request: // map Cc1ccc2nc3c(nc2c1)-c1ccccc1/C3=N/O to recorded log10 of Kd (system: Mitogen-activated protein kinase 10 (Homo sapiens))
Response: 2.53

Request: Form field: log10 of Kd recorded for O/N=C1/c2ccccc2-c2nc3ncccc3nc21 with Mitogen-activated protein kinase 10 (Homo sapiens) (enter value)
Response: 2.59

Request: Given the entry Cc1cc2nc3c(nc2cc1C)-c1ccccc1/C3=N/O , what log10 of Kd was observed with Mitogen-activated protein kinase 10 (Homo sapiens)?
Response: 3.11

Request: So what log10 of Kd did O=[N+]([O-])c1ccc2nc3c(nc2c1)/C(=N\O)c1ccccc1-3 get with Mitogen-activated protein kinase 10 (Homo sapiens)?
Response: 3.63

Request: Reported log10 of Kd for Mitogen-activated protein kinase 10 (Homo sapiens), given O=C(O)c1ccc2nc3c(nc2c1)/C(=N\O)c1ccccc1-3 ?
Response: 3.59

====

target: Mitogen-activated protein kinase 9 (Homo sapiens, UniProt P45984); experiment: Binding affinity to human full-length JNK2 (M1 to Q382 residues) expressed in HEK293 cells measured after 1 hr by Kinomescan method; assay type: cell-based
Sequence (P45984 whole entry, the tested form may be a part): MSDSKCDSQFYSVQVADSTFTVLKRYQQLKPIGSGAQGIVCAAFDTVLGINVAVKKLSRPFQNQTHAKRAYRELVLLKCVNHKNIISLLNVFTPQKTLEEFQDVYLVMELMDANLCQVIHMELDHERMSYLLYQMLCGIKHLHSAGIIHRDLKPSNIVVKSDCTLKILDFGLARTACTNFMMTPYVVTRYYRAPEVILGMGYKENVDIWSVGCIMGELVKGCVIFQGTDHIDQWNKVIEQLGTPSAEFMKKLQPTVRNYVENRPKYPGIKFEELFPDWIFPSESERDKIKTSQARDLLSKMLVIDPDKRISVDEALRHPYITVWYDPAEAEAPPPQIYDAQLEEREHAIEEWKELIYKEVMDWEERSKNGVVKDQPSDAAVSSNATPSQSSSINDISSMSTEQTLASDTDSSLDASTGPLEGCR
assay_readout: pKd
# pKd: negative log10 of molar concentration; output just the value

Please review the entries below; each comes with its answer.
{"structure_smiles": "O/N=C1/c2ccccc2-c2nc3cc(Cl)ccc3nc21", "readout_value": 4.67}
{"structure_smiles": "O/N=C1/c2ccccc2-c2nc3ncc(Cl)cc3nc21", "readout_value": 5.19}
{"structure_smiles": "O=C(O)c1ccc2nc3c(nc2c1)/C(=N\\O)c1ccccc1-3", "readout_value": 5.22}
{"structure_smiles": "O/N=C1/c2ccccc2-c2nc3ncccc3nc21", "readout_value": 6.44}
{"structure_smiles": "O/N=C1/c2ccccc2-c2nc3ccncc3nc21", "readout_value": 5.85}

Request: Any idea what pKd came out for O=C(O)CO/N=C1\c2ccccc2-c2nc3ccccc3nc21 on Mitogen-activated protein kinase 9 (Homo sapiens, UniProt P45984)?
Response: 4.78

Request: Checklist item: pKd tested on Mitogen-activated protein kinase 9 (Homo sapiens, UniProt P45984), entry CCOc1ccc2nc3c(nc2c1)-c1ccccc1/C3=N/O , value?
Response: 5.70

Request: # query: pKd | item CCOC(=O)CO/N=C1\c2ccccc2-c2nc3ccccc3nc21 | system: Mitogen-activated protein kinase 9 (Homo sapiens, UniProt P45984)
Response: 6.13
